Numbers sourced from patent US20190194358A1.

Below is a list of entries, each paired with its recorded fold enhancement in SPR binding response relative to TNF1 value.
target: T1, Tumor Necrosis Factor-alpha (UniProt P01375 77-233); test: SPR (Biacore A100) point-mutant screen at 50 µM peptide
T1 construct: Immobilised on pipette tips or SPR chips (amine coupling or biotin capture); also called TNF-α; TNF-alpha
T1 sequence (P01375 77-233 limits assumed): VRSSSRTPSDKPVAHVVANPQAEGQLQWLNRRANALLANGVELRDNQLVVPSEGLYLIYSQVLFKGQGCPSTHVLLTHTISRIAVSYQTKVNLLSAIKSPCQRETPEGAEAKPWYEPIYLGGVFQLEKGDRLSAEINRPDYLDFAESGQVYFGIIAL

For orientation, consider the following solved cases.
FERDPLKMPWSFLQSRQGSC [TNF1 M7K point-mutant] | ≥ 15 fold
FERDPLMMPWKFLQSRQGSC [TNF1 S11K point-mutant] | ≥ 15 fold

Okay, now this binder:
Task: State, in one line, measured fold enhancement in SPR binding response relative to TNF1 of FERDYLMMPWSFLQSRQGSC [TNF1 P5Y point-mutant]
Result: ≥ 15 fold
